Field: inhibition at 10 µM. Provide a value for each of the compounds that follow.
- target_entity: human OX1 receptor (Homo sapiens, UniProt O43613)
- Construct: expressed in transfected cells; host or cells: CHO cells
- assay_text: Measurement of orexin receptor antagonistic activity (calcium fluorescence, FLIPRtetra)
- Type: cell-based
- experimental_setup: CHO, 10 μM test compound; CHO cells expressing human OX1 receptor; OX-A 1 nM; read-out: Human Orexin1 receptor inhibition (at 10 μM)
Structures can show the parent of a compound that is named as a salt.
One number for each entry, in %.

[[record]]
compound = "Cc1cc(C)nc(N2CCN(C(=O)c3ccccc3C(F)(F)F)CCO2)n1"
measure_unit = "%"
result_value = 2

[[record]]
compound = "COC(=O)c1ccccc1C(=O)N1CCN(c2cc(C)nc(C)n2)O[C@@H](C)C1"
measure_unit = "%"
result_value = 17

[[record]]
compound = "Cc1cc(N2CCN(C(=O)c3ccccc3C3CCC3)CCO2)nc(C)n1"
measure_unit = "%"
result_value = 19

[[record]]
compound = "Cc1cc(C)nc(N2CCN(C(=O)c3ccccc3-c3ccccc3)CCO2)n1"
measure_unit = "%"
result_value = 57

[[record]]
compound = "Cc1ccnc(N2CCN(C(=O)c3cc(C)ccc3-n3nccn3)[C@H](C)CO2)c1"
measure_unit = "%"
result_value = 68

[[record]]
compound = "Cc1ccc(-n2nccn2)c(C(=O)N2CCON(c3ncc(C(F)(F)F)cn3)CC2)c1"
measure_unit = "%"
result_value = 91

[[record]]
compound = "Cc1cc(C)nc(N2CCN(C(=O)c3cc(Cl)ccc3Cl)CCO2)n1"
measure_unit = "%"
result_value = 16

[[record]]
compound = "Cc1cc(C#N)nc(N2CCN(C(=O)c3ccccc3-n3nccn3)[C@H](C)CO2)n1"
measure_unit = "%"
result_value = 82


Please state, for each entry, its recorded inhibition at 10 µM.
1. C[C@H]1CN(C(=O)c2ccccc2-n2nccn2)CCN(c2ccc(Cl)cn2)O1
2. Cc1cc(C)nc(N2CCN(C(=O)c3cc(C)ccc3-n3nccn3)CCO2)c1
3. Cc1cc(N2CCN(C(=O)c3cc(F)ccc3-c3ncccn3)CCO2)nc(C)n1
4. Cc1cc(N2CCN(C(=O)c3cc(Cl)ccc3-c3nccs3)C[C@H](C)O2)nc(C)n1 [Example 88, hydrochloride]
5. Cc1ccc(-n2nccn2)c(C(=O)N2CCN(c3cc(C#N)ccn3)OC[C@H]2C)c1
6. Cc1nc(N2C[C@H](C)N(C(=O)c3cc(Cl)ccc3-n3nccn3)[C@H](C)CO2)cc(C(F)(F)F)n1
7. Cc1cc(C#N)nc(N2CCN(C(=O)c3cc(F)ccc3-n3nccn3)[C@H](C)CO2)n1
8. Cc1cc(C)nc(N2CCN(C(=O)c3ccccc3C#N)CCO2)n1

## Result
1: 97; 2: 97; 3: 45; 4: 101; 5: 36; 6: 105; 7: 61; 8: 16

Please state, for each entry, its recorded inhibition at 10 µM.
1. Cc1cc(N2CCN(C(=O)c3ccc(Cl)cc3-n3nccn3)C[C@H](C)O2)nc(C)n1
2. Cc1cc(N2CCN(C(=O)c3ccccc3-c3ncc(F)cn3)CCO2)nc(C)n1
3. COC(=O)c1cc(N2CCN(C(=O)c3cc(Cl)ccc3-n3nccn3)C[C@H](C)O2)nc(C)n1

## Result
[83, 32, 25]

Please state, for each entry, its recorded inhibition at 10 µM.
1. Cc1ccc(-n2nccn2)c(C(=O)N2CCN(c3cccc(C)n3)OC[C@H]2C)c1
2. Cc1nc(N2CCN(C(=O)c3ccccc3-c3ncccn3)[C@H](C)CO2)cc(C(F)(F)F)n1
3. Cc1cc(N2CCN(C(=O)c3cc(Cl)ccc3C3CCC3)CCO2)nc(C)n1

## Result
85
55
54

====

- target_entity: human OX1 receptor (Homo sapiens, UniProt O43613)
- Construct: expressed in transfected cells; host or cells: CHO cells
- assay_text: Measurement of orexin receptor antagonistic activity (calcium fluorescence, FLIPRtetra)
- Format: cell-based
- experimental_setup: CHO, 10 μM test compound; CHO cells expressing human OX1 receptor; OX-A 1 nM; read-out: Human Orexin1 receptor inhibition (at 10 μM)
- Method: Measurement of Orexin Receptor Antagonistic Activity CHO cells forcibly expressing human OX1 receptor or human OX2 receptor were seeded in each well of 384 well black transparent bottom plate (BD Falcon) at 7,500 cells/well, and cultured for one day in a 5% CO2 incubator at 37° C. […] The plate was stood for 30 min in a 5% CO2 incubator at 37° C., and further stood at room temperature for 30 min. […]
Field: inhibition at 10 µM. Provide a value for each of the compounds that follow.
Record the result as number plus unit.

[[record]]
smiles_str = "Cc1cc(N2CCN(C(=O)c3c(C)cccc3-c3ncccn3)CCO2)nc(C)n1"
result_value = "59%"

[[record]]
smiles_str = "Cc1ccc(-n2nccn2)c(C(=O)N2CCN(c3cc(C(F)(F)F)ccn3)OC[C@H]2C)c1"
result_value = "66%"

[[record]]
smiles_str = "Cc1cc(N2CCN(C(=O)c3cc(C#N)ccc3-n3nccn3)CCO2)nc(C)n1"
result_value = "-16%"

[[record]]
smiles_str = "Cc1ccc(-n2nccn2)c(C(=O)N2[C@H](C)CON(c3cc(C)nc(C)n3)C[C@@H]2C)c1"
result_value = "103%"


Now for another entry.
## Task Which measured inhibition at 10 µM value corresponds to `Cc1cc(N2CCN(C(=O)c3ccccc3-n3nccn3)C[C@H](C)O2)nc(C(F)(F)F)n1` ?
## Result 106%

====

- target_entity: human OX2 receptor (Homo sapiens, UniProt O43614)
- Construct: expressed in transfected cells; host or cells: CHO cells
- Sequence (O43614 whole entry): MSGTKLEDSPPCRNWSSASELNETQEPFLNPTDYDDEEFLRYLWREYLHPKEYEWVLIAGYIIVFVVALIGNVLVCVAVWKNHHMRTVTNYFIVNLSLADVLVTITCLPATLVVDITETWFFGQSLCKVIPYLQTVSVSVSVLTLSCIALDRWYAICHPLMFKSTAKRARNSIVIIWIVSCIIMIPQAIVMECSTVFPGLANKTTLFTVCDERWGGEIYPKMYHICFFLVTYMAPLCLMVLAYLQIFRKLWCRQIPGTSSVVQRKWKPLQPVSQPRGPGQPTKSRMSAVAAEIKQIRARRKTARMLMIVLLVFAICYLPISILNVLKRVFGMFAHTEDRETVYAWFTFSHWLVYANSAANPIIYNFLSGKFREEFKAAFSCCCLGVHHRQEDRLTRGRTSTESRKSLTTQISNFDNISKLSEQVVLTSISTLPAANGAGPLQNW
- assay_text: Measurement of orexin receptor antagonistic activity (calcium fluorescence, FLIPRtetra)
- Format: cell-based
- experimental_setup: CHO, 10 μM test compound; CHO cells expressing human OX2 receptor; OX-A 0.3 nM; read-out: Human Orexin2 receptor inhibition (at 10 μM)
assay_metric: inhibition at 10 µM (%)
One number for each entry, in %.

Check out these entries, answers already filled in.
[[record]]
molecule = "COc1cccc(F)c1C(=O)N1CCON(c2nc(C)cc(C)n2)CC1"
measure_unit = "%"
result_value = 73

[[record]]
molecule = "Cc1cc(C)nc(N2CCN(C(=O)c3ccccc3-n3nccn3)[C@H](C)CO2)n1"
measure_unit = "%"
result_value = 101


Please state, for each entry, its recorded inhibition at 10 µM.
1. Cc1ccc(-n2nccn2)c(C(=O)N2CCN(c3cc(C)nc(C)n3)OC[C@H]2C)c1
2. Cc1nccc(N2CCN(C(=O)c3cc(Cl)ccc3-c3ncccn3)C[C@H](C)O2)n1
3. Cc1cc(N2CCN(C(=O)c3ccccc3-n3cccn3)CCO2)nc(C)n1

## Result
[96, 100, 101]

Please state, for each entry, its recorded inhibition at 10 µM.
1. CCC1CN(C(=O)c2ccccc2-n2nccn2)CCN(c2cc(C)nc(C)n2)O1 (centres unmarked)
2. Cc1nc(N2CCN(C(=O)c3ccccc3-n3nccn3)C[C@H](C)O2)cc(C(F)(F)F)n1

## Result
1. 101
2. 101

Please state, for each entry, its recorded inhibition at 10 µM.
1. Cc1ccc(-n2nccn2)c(C(=O)N2CCON(c3ncc(C4CC4)cn3)CC2)c1
2. Cc1cc(N2CCN(C(=O)c3cc(F)c(F)cc3-c3ncccn3)C[C@H](C)O2)nc(C)n1
3. Cc1cc(N2CCN(C(=O)c3c(F)cccc3-n3nccn3)C[C@H](C)O2)nc(C)n1
4. Cc1cc(N2CCN(C(=O)c3cc(F)ccc3-n3nccn3)C[C@H](C)O2)nc(C)n1
5. Cc1cc(C)nc(N2CCN(C(=O)c3ccccc3-c3ccco3)CCO2)n1
6. Cc1nc(N2CCN(C(=O)c3cc(F)ccc3-n3nccn3)[C@H](C)CO2)nc(C)c1F

## Result
94
98
97
98
99
97

Please state, for each entry, its recorded inhibition at 10 µM.
1. Cc1ccc(-n2nccn2)c(C(=O)N2CCON(c3nc(C)cc(-c4ccc(F)cc4)n3)CC2)c1
2. Cc1cc(N2CCN(C(=O)c3ccccc3-n3nccn3)C[C@H](C)O2)nc(C)n1
3. Cc1nc(C(F)F)cc(N2CCN(C(=O)c3cc(F)ccc3-n3nccn3)C[C@H](C)O2)n1
4. COc1cc(N2CCN(C(=O)c3ccccc3-n3nccn3)[C@H](C)CO2)nc(C)n1
5. Cc1ccc(-n2nccn2)c(C(=O)N2CCN(c3cc(C#N)ccn3)OC[C@H]2C)c1

## Result
93
101
102
101
95

====

- target_entity: human OX1 receptor (Homo sapiens, UniProt O43613)
- Construct: expressed in transfected cells; host or cells: CHO cells
- Sequence (O43613 1-425): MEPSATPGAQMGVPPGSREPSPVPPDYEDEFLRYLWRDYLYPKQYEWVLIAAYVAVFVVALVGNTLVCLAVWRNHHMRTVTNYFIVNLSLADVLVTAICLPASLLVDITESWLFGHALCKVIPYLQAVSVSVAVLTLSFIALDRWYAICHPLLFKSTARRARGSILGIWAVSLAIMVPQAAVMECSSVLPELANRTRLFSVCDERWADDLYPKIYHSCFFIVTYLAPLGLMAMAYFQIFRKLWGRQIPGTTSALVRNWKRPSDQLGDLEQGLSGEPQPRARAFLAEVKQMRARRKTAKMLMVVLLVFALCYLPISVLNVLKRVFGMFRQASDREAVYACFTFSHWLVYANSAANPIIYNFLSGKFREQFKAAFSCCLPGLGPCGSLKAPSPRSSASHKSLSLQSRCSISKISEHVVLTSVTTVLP
- assay_text: Measurement of orexin receptor antagonistic activity (calcium fluorescence, FLIPRtetra)
- Type: cell-based
- experimental_setup: CHO, 10 μM test compound; CHO cells expressing human OX1 receptor; OX-A 1 nM; read-out: Human Orexin1 receptor inhibition (at 10 μM)
Counter-ions that a name gives are not always drawn.
1 (yes) means recorded inhibition at 10 µM is 70% or above; 0 (no) means it is below 70%.

Illustrative cases are given below, each with its answer.
[[record]]
compound = "Cc1cc(N2CCN(C(=O)c3ccccc3-c3cccs3)CCO2)nc(C)n1 [Example 23, hydrochloride]"
assigned_label = "1 (yes)"

[[record]]
compound = "Cc1cc(N2CCN(C(=O)c3cc(Cl)ccc3-c3ncccn3)C[C@H](C)O2)nc(C)n1"
assigned_label = "1 (yes)"

[[record]]
compound = "Cc1cc(N2CCN(C(=O)c3cc(Cl)ccc3-c3ncccn3)[C@H](C)CO2)nc(C)n1"
assigned_label = "1 (yes)"

[[record]]
compound = "Cc1cc(C)nc(N2CCN(C(=O)c3cccc(-c4ccccc4)c3)CCO2)n1"
assigned_label = "0 (no)"

[[record]]
compound = "CCC1CN(C(=O)c2ccccc2-n2nccn2)CCN(c2cc(C)nc(C)n2)O1 (centres unmarked)"
assigned_label = "1 (yes)"


## Task Evaluate `Cc1nc(N2CCN(C(=O)c3cc(Cl)ccc3-c3ncccn3)CCO2)cc(C(F)(F)F)n1` : inhibition at 10 µM at minimum 70%?
## Result 1 (yes)

## Task Evaluate `Cc1ccc(-n2nccn2)c(C(=O)N2CCN(c3nc(C)cc(C#N)n3)OC[C@H]2C)c1` : inhibition at 10 µM at minimum 70%?
## Result 1 (yes)

## Task Evaluate `COc1ccc(Cl)c(C(=O)N2CCON(c3nc(C)cc(C)n3)CC2)c1` : inhibition at 10 µM at minimum 70%?
## Result 0 (no)

## Task Evaluate `Cc1cc(N2CCN(C(=O)c3cc(Cl)ccc3-c3ncccn3)CCO2)nc(C)n1` : inhibition at 10 µM at minimum 70%?
## Result 1 (yes)

## Task Evaluate `Cc1cc(N2CCN(C(=O)c3cc(Cl)ccc3-n3nccn3)C[C@H](C)O2)nc(C(F)(F)F)n1` : inhibition at 10 µM at minimum 70%?
## Result 1 (yes)

## Task Evaluate `Cc1cc(C)nc(N2CCN(C(=O)c3ccc(C#N)cc3)CCO2)n1` : inhibition at 10 µM at minimum 70%?
## Result 0 (no)

## Task Evaluate `CCOc1ccccc1C(=O)N1CCON(c2nc(C)cc(C)n2)CC1` : inhibition at 10 µM at minimum 70%?
## Result 0 (no)

## Task Evaluate `Cc1nc(N2CCN(C(=O)c3cc(F)ccc3-n3nccn3)[C@H](C)CO2)nc(C)c1Cl` : inhibition at 10 µM at minimum 70%?
## Result 1 (yes)

## Task Evaluate `C[C@H]1CN(C(=O)c2ccccc2-n2nccn2)CCN(c2cc(C3CC3)nc(C3CC3)n2)O1` : inhibition at 10 µM at minimum 70%?
## Result 1 (yes)

## Task Evaluate `Cc1ccc(-c2ncccn2)c(C(=O)N2CCN(c3cc(C)nc(C)n3)O[C@@H](C)C2)c1` : inhibition at 10 µM at minimum 70%?
## Result 1 (yes)

## Task Evaluate `Cc1nccc(N2C[C@H](C)N(C(=O)c3ccccc3-c3nccs3)[C@H](C)CO2)n1` : inhibition at 10 µM at minimum 70%?
## Result 1 (yes)

## Task Evaluate `Cc1cc(N2CCN(C(=O)c3cc(C(F)(F)F)ccc3-n3nccn3)C[C@H](C)O2)nc(C)n1` : inhibition at 10 µM at minimum 70%?
## Result 0 (no)

## Task Evaluate `Cc1cc(N2CCN(C(=O)c3ccccc3-c3csc(C)n3)CCO2)nc(C)n1` : inhibition at 10 µM at minimum 70%?
## Result 0 (no)

## Task Evaluate `COc1cccc(F)c1C(=O)N1CCON(c2nc(C)cc(C)n2)CC1` : inhibition at 10 µM at minimum 70%?
## Result 0 (no)

## Task Evaluate `C[C@H]1CN(C(=O)c2ccccc2-n2nccn2)CCN(c2cc(C(F)(F)F)nc(C3CC3)n2)O1` : inhibition at 10 µM at minimum 70%?
## Result 1 (yes)

## Task Evaluate `Cc1cc(N2CCN(C(=O)c3ccc(Br)cc3-n3nccn3)C[C@H](C)O2)nc(C)n1` : inhibition at 10 µM at minimum 70%?
## Result 1 (yes)

## Task Evaluate `Cc1cc(N2CCN(C(=O)c3cc(Cl)ccc3-c3ncc(F)cn3)CCO2)nc(C)n1` : inhibition at 10 µM at minimum 70%?
## Result 0 (no)

## Task Evaluate `C[C@@H]1CON(c2ncc(F)c(O)n2)CCN1C(=O)c1ccccc1-n1nccn1` : inhibition at 10 µM at minimum 70%?
## Result 0 (no)

## Task Evaluate `Cc1cc(N2CCN(C(=O)c3ccccc3-c3nc(C)cs3)C[C@H](C)O2)nc(C)n1` : inhibition at 10 µM at minimum 70%?
## Result 1 (yes)

## Task Evaluate `Cc1cc(N2CCN(C(=O)c3cc(F)c(F)cc3-n3nccn3)CCO2)nc(C)n1` : inhibition at 10 µM at minimum 70%?
## Result 0 (no)

## Task Evaluate `C[C@H]1CN(C(=O)c2ccccc2-c2nccs2)CCN(c2ccc(Cl)cn2)O1` : inhibition at 10 µM at minimum 70%?
## Result 1 (yes)
